Tested on: large (Lg) crabgrass
Assay overview: Test C postemergence
Assay type: in vivo, Digitaria sanguinalis
Test conditions: Postemergence, 62 g ai/ha; scale 0 to 100 (0 no effect, 100 complete control)
Endpoint label: Plant response rating, Crabgrass, Large
In your answer, state the number alone without any accompanying words.

>  <Structure string>
O=Cc1cccc(Oc2ncc(I)cn2)c1-n1cc(Br)cn1

>  <Plant response rating, Crabgrass, Large>
0

$$$$

Query :: Request the reported Plant response rating, Crabgrass, Large associated with "N#Cc1cccc(Oc2ncc(Cl)cn2)c1-n1cc(OC(F)F)cn1"
Result :: 15

Query :: And then "N#Cc1cnn(-c2c(Br)cccc2Oc2ncc(Cl)cn2)c1" , what is it?
Result :: 15

Query :: And then "N#Cc1cccc(Oc2ncc(Br)cn2)c1-n1cc(Br)cn1" , what is it?
Result :: 5

Query :: And then "Cc1cnc(Oc2cccc(C#N)c2-n2cc(C#N)cn2)nc1" , what is it?
Result :: 10

Query :: And then "FC(F)Oc1cnn(-c2ccccc2Oc2ncc(Cl)cn2)c1" , what is it?
Result :: 5

Query :: And then "CC(C)c1cnn(-c2c(C#N)cccc2Oc2ncc(Cl)cn2)c1" , what is it?
Result :: 5

Query :: And then "Fc1cccc(Oc2ncc(Cl)cn2)c1-n1cc(Cl)cn1" , what is it?
Result :: 10

All figures here come from patent US9695155B2.
